- System: OVCAR-8 ovarian
- Protocol Description: NCI tumour cell line growth inhibition, 48 h
Observation Type: TGI

{"Compound": "COC(=O)CCC(C)[C@H]1CCC2C3C(C[C@H](OC(C)=O)[C@@]21C)[C@@]1(C)CCC2(C[C@H]1C[C@H]3OC(C)=O)OOC1(CCCCCCC1)OO2 (some centres undefined)", "TGI": "> 100 µM"}
{"Compound": "Cn1cc(C2=C(c3cn(C)c4cc(C(=O)O)ccc34)C(=O)NC2=O)c2ccccc21", "TGI": "> 25 µM"}
{"Compound": "CC(SC(=S)Nc1cccc(F)c1)C(=O)O (centres undefined)", "TGI": "76 µM"}

Entry Cc1nc(C(N)=S)sc1C(=O)CC(=O)C(=O)Nc1c(C(C)C)cccc1C(C)C ; TGI = > 100 µM

Entry NS(=O)(=O)N(c1cc(C(F)(F)F)cc(C(F)(F)F)c1)C1CCN(Cc2ccc(C(F)(F)F)cc2)CC1 — recorded TGI = 17.4 µM

Looking up O=C1c2cc3c(cc2[C@@H]2NC4CCCC14O2)OCO3 (some centres undefined) , I found its TGI recorded as > 100 µM

Per the records, this compound ( COc1ccc(NS(=O)c2ccc(Cl)cc2)cc1 (centres undefined) ) has TGI equal to > 100 µM

Given item CN(CCO)C1CCN(c2ccc(Nc3ncc4c5ccnc(F)c5n(C5CCCC5)c4n3)nc2)CC1 , the value recorded as its TGI is 43.4 µM

For this compound ( COc1ccc(N2C(=O)C3c4[nH]c5ccc(OC)cc5c4C4CCC(C(C)C)CC4C3C2=O)cc1 (centres undefined) ), measured TGI is > 100 µM

---

- System: HCC-2998 colon
- Protocol Description: NCI tumour cell line growth inhibition, 48 h
Quick reference: GI50 of the listed items.

These solved cases illustrate the format of a correct answer.
{"Compound": "O=C(NNC(=O)C1CCN(S(=O)(=O)c2ccc(-c3ccccc3)cc2)CC1)c1ccc(C(F)(F)F)cc1", "Assay System": "HCC-2998 colon", "GI50": "20.6 µM"}
{"Compound": "C=C1C(=O)O[C@H]2[C@H]1CC/C(COC(=O)NCc1[nH]nc3ccccc13)=C\\CC[C@@]1(C)O[C@@H]21", "Assay System": "HCC-2998 colon", "GI50": "2.78 µM"}

Entry CCOC(=O)c1ccc(NC(=O)Nc2nccs2)cc1 — recorded GI50 = 0.204 µM

Looking up O=CC(NC(=O)N(CCCl)N=O)C(O)C(O)C(O)CO (stereo unspecified) , I found its GI50 recorded as > 625 µM

Entry COc1ccc(/C=N/Nc2nc(N)nc(N3CCCC3)c2C#N)cc1 ; GI50 = 8.59 µM

The compound listed as CCC(/C=C(C)/C=C/C(=O)c1c(O)c(-c2ccc(O)cc2)c[nH]c1=O)CO (stereo unspecified) has a reported GI50 of 13 µM

---

Property: TGI; scope: individual molecules
- System: M14 melanoma
- Protocol Description: NCI tumour cell line growth inhibition, 48 h

Recorded results for 3 molecules are shown here.
{"Molecule": "Cc1cc(C)nc(NS(=O)(=O)c2ccc(NC(=O)c3cccc4c(Nc5ccc(S(=O)(=O)N=C(N)N)cc5)c5ccc(Cl)cc5nc34)cc2)n1", "Result": "> 100 µM"}
{"Molecule": "CN(C(=O)c1cccs1)C(=S)N1CCN(c2ccccn2)CC1", "Result": "> 100 µM"}
{"Molecule": "OCCCNCC(O)c1ccc(OCc2ccccc2)c(OCc2ccccc2)c1 (stereo not given)", "Result": "31.5 µM"}

// TGI lookup, molecule = CC(C)(C)C1=NC(=S)SC2=NC(=O)C3(NN21)c1ccccc1-c1ccccc13 , result: > 10 µM
